tested on: NCI-H23; experiment: relative viability (nuclei count vs DMSO), 5 days (fraction); higher = more cells survive; details: first compound 0.1 µM
# relative viability per entry
Please respond with just the number, no unit label.

# annotated cases, reported relative viability shown
MOLECULE: Cc1cn(-c2cc(NC(=O)c3ccc(C)c(Nc4nccc(-c5cccnc5)n4)c3)cc(C(F)(F)F)c2)cn1 [Nilotinib] + O=C(CCCCCCC(=O)Nc1ccccc1)NO [Vorinostat] (partner 1 µM)
TARGET: NCI-H23
relative viability: 0.546
--
MOLECULE: Cc1cn(-c2cc(NC(=O)c3ccc(C)c(Nc4nccc(-c5cccnc5)n4)c3)cc(C(F)(F)F)c2)cn1 [Nilotinib] + CC(=O)Nc1cccc(-n2c(=O)n(C3CC3)c(=O)c3c(Nc4ccc(I)cc4F)n(C)c(=O)c(C)c32)c1 [Trametinib] (partner 0.02 µM)
TARGET: NCI-H23
relative viability: 0.197
--
MOLECULE: Cc1cn(-c2cc(NC(=O)c3ccc(C)c(Nc4nccc(-c5cccnc5)n4)c3)cc(C(F)(F)F)c2)cn1 [Nilotinib] + COc1cc2c(Oc3ccc(NC(=O)C4(C(=O)Nc5ccc(F)cc5)CC4)cc3F)ccnc2cc1OCCCN1CCOCC1 [Foretinib] (partner 0.25 µM)
TARGET: NCI-H23
relative viability: 0.658
--
MOLECULE: Cc1cn(-c2cc(NC(=O)c3ccc(C)c(Nc4nccc(-c5cccnc5)n4)c3)cc(C(F)(F)F)c2)cn1 [Nilotinib] + CS(=O)(=O)CCNCc1ccc(-c2ccc3ncnc(Nc4ccc(OCc5cccc(F)c5)c(Cl)c4)c3c2)o1 [Lapatinib] (partner 2 µM)
TARGET: NCI-H23
relative viability: 0.704
--
MOLECULE: Cc1cn(-c2cc(NC(=O)c3ccc(C)c(Nc4nccc(-c5cccnc5)n4)c3)cc(C(F)(F)F)c2)cn1 [Nilotinib] + CC(C)C[C@H](NC(=O)[C@H](Cc1ccccc1)NC(=O)c1cnccn1)B(O)O [Bortezomib] (partner 0.002 µM)
TARGET: NCI-H23
relative viability: 0.775

Here is another molecule to look at.
Input line: Request the reported relative viability associated with Cc1cn(-c2cc(NC(=O)c3ccc(C)c(Nc4nccc(-c5cccnc5)n4)c3)cc(C(F)(F)F)c2)cn1 [Nilotinib] + CCNC(=O)c1noc(-c2cc(C(C)C)c(O)cc2O)c1-c1ccc(CN2CCOCC2)cc1 [Luminespib] (partner 0.01 µM)
Output line: 0.195
